// each record: one item and its Toxicity Data Kidney for Kidney
measured_property: Toxicity Data Kidney

{"compound": "COc1cc2c(cc1OC(=O)Cc1cc(=O)oc3cc(N(C)C)ccc13)CCN[C@]21CS[C@@H]2c3c(OC(C)=O)c(C)c4c(c3[C@H](COC1=O)N1C2[C@H]2c3c(cc(C)c(OC)c3OC(=O)Cc3cc(=O)oc5cc(N(C)C)ccc35)C[C@@H]([C@@H]1O)N2C)OCO4 (stereo partly shown) [Compound 78]", "tested_system": "Kidney", "reported_value": "2.59E-07"}
{"compound": "COc1cc2c(cc1OC(=O)/C=C/c1ccccc1)CCN[C@]21CS[C@@H]2c3c(OC(C)=O)c(C)c4c(c3[C@H](COC1=O)N1C2[C@@H]2N[C@@H](Cc3cc(C)c(OC)c(O)c32)[C@@H]1O)OCO4 (stereo partly shown)", "tested_system": "Kidney", "reported_value": "3.34E-09"}
{"compound": "COc1cc2c(cc1OC(=O)OC(C)(C)C)CCN[C@]21CS[C@@H]2c3c(OC(C)=O)c(C)c4c(c3[C@H](COC1=O)N1C2[C@H]2c3c(cc(C)c(OC)c3OC(=O)OC(C)(C)C)C[C@@H]([C@@H]1O)N2C)OCO4 (stereo partly shown)", "tested_system": "Kidney", "reported_value": "1.37E-08"}
{"compound": "COc1cc2c(cc1OC)[C@@]1(CS[C@@H]3c4c(OC(C)=O)c(C)c5c(c4[C@H](COC1=O)N1C3[C@H]3c4c(cc(C)c(OC)c4O)C[C@@H]([C@@H]1O)N3C)OCO5)NCC2 (stereo partly shown)", "tested_system": "Kidney", "reported_value": "5.36E-08"}

----------
Test system: MEL-28
experimental_details: Inhibition of cell growth by counting cells, MEL-28
Format: cell-based, human
settings: Homo sapiens, SK-MEL-28, 72 h; three days of incubation; read-out: IC50 (molar) MEL-28

{"molecule": "CCCCCCCCCCCCCCCC(=O)Oc1cc2c(cc1OC)[C@@]1(CS[C@@H]3c4c(OC(C)=O)c(C)c5c(c4[C@H](COC1=O)N1C3[C@H]3c4c(cc(C)c(OC)c4O)C[C@@H]([C@@H]1C#N)N3C)OCO5)NCC2 (stereo partly shown)", "tested_system": "MEL-28", "IC50": "9.91 nM"}
{"molecule": "COc1cc2c(cc1O)CCN[C@]21CS[C@@H]2c3c(OC(=O)C(F)(F)F)c(C)c4c(c3[C@H](COC1=O)N1C2[C@H]2c3c(cc(C)c(OC)c3O)C[C@@H]([C@@H]1C#N)N2C)OCO4 (stereo partly shown)", "tested_system": "MEL-28", "IC50": "1.37 nM"}
{"molecule": "CCCCCCCC(=O)Oc1cc2c(cc1OC)[C@@]1(CS[C@@H]3c4c(OC(C)=O)c(C)c5c(c4[C@H](COC1=O)N1C3[C@@H]3N[C@@H](Cc4cc(C)c(OC)c(OC(=O)CCCCCCC)c43)[C@@H]1C#N)OCO5)NCC2 (stereo partly shown)", "tested_system": "MEL-28", "IC50": "49.6 nM"}
{"molecule": "COc1cc2c(cc1OC(C)=O)CCN[C@]21CS[C@@H]2c3c(OC(C)=O)c(C)c4c(c3[C@H](COC1=O)N1C2[C@H]2c3c(cc(C)c(OC)c3OC(C)=O)C[C@@H]([C@@H]1C#N)N2C)OCO4 (stereo partly shown)", "tested_system": "MEL-28", "IC50": "2.93 nM"}
